experimental.protocol: Plasma pharmacokinetics in rats (repeated-dose study)
Format: in vivo
measurement.parameters: rat, iv, male rats, 12 mg/kg-dose group, initial day of repeated-dose study, average, read-out: AUC0-24 (converted)
measure.name: AUC(0-t)
# output: numeric value plus its unit

Ask: Find the recorded AUC(0-t) belonging to `CC(C)=CCC/C(C)=C/CC[C@]1(C)Oc2c(c(O)cc3c2CN(CCC[C@@H](C(=O)O)N2Cc4c(cc(O)c5c4O[C@@](C)(CC/C=C(\C)CCC=C(C)C)[C@@H](O)C5)C2=O)C3=O)C[C@@H]1O` and report it.
Reply: 25700 ng·h/mL

----------
experimental.protocol: Phase I test for healthy persons: pharmacokinetics
Type: in vivo, human
measurement.parameters: male, human, blood, iv, 0.25 mg/kg single i.v. over 31 minutes, read-out: AUC0-24 (converted)
Experimental: Phase I test (placebo-control randomized double-blind test) for healthy adult males was carried out. Five cohorts each was constituted of 8 persons (active drug was administered to 6 person and a placebo was administered to 2 person) were used in the test. […] The subjects determined to be eligible by a screening test were hospitalized the day before administration. […]
measure.name: AUC(0-t) (ng·h/mL)
One number for each entry, in ng·h/mL.

Ask: Find the recorded AUC(0-t) belonging to CC(C)=CCC/C(C)=C/CC[C@]1(C)Oc2c(c(O)cc3c2CN(CCC[C@@H](C(=O)O)N2Cc4c(cc(O)c5c4O[C@@](C)(CC/C=C(\C)CCC=C(C)C)[C@@H](O)C5)C2=O)C3=O)C[C@@H]1O [TMS-007] and report it.
Reply: 1380

----------
experimental.protocol: Phase I test for healthy persons: pharmacokinetics
Type: in vivo, human
measurement.parameters: male, human, blood, iv, 3 mg/kg single i.v. over 31 minutes, read-out: AUC0-24 (converted)
measure.name: AUC(0-t) (ng·h/mL)
Give bare numbers, in ng·h/mL.

Ask: Find the recorded AUC(0-t) belonging to `CC(C)=CCC/C(C)=C/CC[C@]1(C)Oc2c(c(O)cc3c2CN(CCC[C@@H](C(=O)O)N2Cc4c(cc(O)c5c4O[C@@](C)(CC/C=C(\C)CCC=C(C)C)[C@@H](O)C5)C2=O)C3=O)C[C@@H]1O` and report it.
Reply: 16000

----------
experimental.protocol: Phase II single dose study: pharmacokinetics (plasma TMS-007 concentration)
Format: in vivo, human
measurement.parameters: human, plasma, intravenous; patients, 3 mg/kg, 2 hours after the administration; read-out: plasma TMS-007 concentration (mean±standard deviation)
measure.name: concentration at 2 h (ng/mL)
Numbers only, in ng/mL.

Ask: Find the recorded concentration at 2 h belonging to CC(C)=CCC/C(C)=C/CC[C@]1(C)Oc2c(c(O)cc3c2CN(CCC[C@@H](C(=O)O)N2Cc4c(cc(O)c5c4O[C@@](C)(CC/C=C(\C)CCC=C(C)C)[C@@H](O)C5)C2=O)C3=O)C[C@@H]1O [TMS-007] and report it.
Reply: 897

----------
experimental.protocol: Phase I test for healthy persons: pharmacokinetics
Assay type: in vivo, human
measurement.parameters: male, human, blood, iv, 0.05 mg/kg single i.v. over 31 minutes
measure.name: Cmax (ng/mL)
Answers are plain numbers, in ng/mL.

Ask: Find the recorded Cmax belonging to CC(C)=CCC/C(C)=C/CC[C@]1(C)Oc2c(c(O)cc3c2CN(CCC[C@@H](C(=O)O)N2Cc4c(cc(O)c5c4O[C@@](C)(CC/C=C(\C)CCC=C(C)C)[C@@H](O)C5)C2=O)C3=O)C[C@@H]1O [TMS-007] and report it.
Reply: 346
